- testedTarget: human liver GK (GST-hLGK1) (Homo sapiens)
- Construct: with a BamHI site added to immediately before the initiation codon
- Sequence (P35557 1-464 isoform P35557-3): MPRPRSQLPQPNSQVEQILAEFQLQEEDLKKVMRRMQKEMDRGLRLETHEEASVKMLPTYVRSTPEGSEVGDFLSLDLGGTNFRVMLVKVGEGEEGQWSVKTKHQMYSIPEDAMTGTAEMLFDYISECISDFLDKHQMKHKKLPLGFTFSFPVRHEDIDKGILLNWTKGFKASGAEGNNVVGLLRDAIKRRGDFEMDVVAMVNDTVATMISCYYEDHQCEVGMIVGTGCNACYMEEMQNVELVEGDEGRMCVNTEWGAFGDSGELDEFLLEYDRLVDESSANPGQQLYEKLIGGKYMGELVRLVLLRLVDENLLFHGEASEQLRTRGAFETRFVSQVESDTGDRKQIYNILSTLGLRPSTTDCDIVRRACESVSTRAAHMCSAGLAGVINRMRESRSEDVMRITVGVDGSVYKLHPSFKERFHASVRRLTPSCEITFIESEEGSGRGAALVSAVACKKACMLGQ
- procedureDetails: Determination of GK activity value (Mant-ATP to Mant-ADP conversion, capillary electrophoresis)
- conditionSummary: reaction started with 25 mM D-glucose solution, 37° C., 60 min, concentration at midpoint between maximum activity value and control group activity value
- Experimental: Plasmid DNA to be used for the expression of a protein (GST-hLGK1) containing GST (Glutathione S-transferase) added to the amino terminal of human liver GK in Escherichia coli was prepared as follows. First, PCR was performed using human liver cDNA (Marathon Ready cDNA, Clontech Laboratories, Inc.) as a template and two kinds of synthetic DNAs (5′-[…]-3′ (SEQ ID NO: 1) and 5′-[…]-3′ (SEQ ID NO: 2)), and the obtained DNA fragment was closed using a TOPO TA Cloning Kit (Invitrogen Corporation). […]
For each record, write down the corresponding pEC50.
One number for each entry, as −log10 of the molar value.

compound="Cc1cc(Oc2ccc(S(C)(=O)=O)nc2)cc2cc(C3=NCC(CC(N)=O)S3)[nH]c12 (stereo not shown)" experimentalvalue=7.54
compound="COCCOCc1ccc(Oc2cc(OC3CCOCC3)c3[nH]c(C4=NCC(CCO)S4)cc3c2)cn1 (stereo not shown)" experimentalvalue=7.57

Required: pEC50, one value per compound below.
1. CS(=O)(=O)c1ccc(Oc2ccc3[nH]c(C4=NCC(CC(=O)N5CCOCC5)S4)cc3c2)cn1 (single isomer, unassigned) [Example 69]
2. CNC(=O)CC1CN=C(c2cc3cc(Oc4ccc(S(C)(=O)=O)nc4)cc(C)c3[nH]2)S1 (stereo not shown)

7.55
7.48

---

For each record, write down the corresponding pEC50.
- testedTarget: human liver GK (GST-hLGK1) (Homo sapiens)
- Construct: with a BamHI site added to immediately before the initiation codon
- procedureDetails: Determination of GK activity value (Mant-ATP to Mant-ADP conversion, capillary electrophoresis)
- conditionSummary: reaction started with 25 mM D-glucose solution, 37° C., 60 min, concentration at midpoint between maximum activity value and control group activity value
Give bare numbers, as −log10 of the molar value.

Required: pEC50, one value per compound below.
1. CNC(=O)CC1CN=C(c2cc3cc(Oc4ccc(S(C)(=O)=O)nc4)cc(OC4CCOCC4)c3[nH]2)S1 (single isomer, unassigned) [Example 36]
2. COCCNC(=O)CC1CN=C(c2cc3cc(Oc4ccc(S(C)(=O)=O)nc4)ccc3[nH]2)S1 (single isomer, unassigned) [Example 67]

[7.80, 7.05]

Required: pEC50, one value per compound below.
1. CS(=O)(=O)Cc1ccc(Oc2cc(OC3CCOCC3)c3[nH]c(C4=NCC(CCO)S4)cc3c2)cn1 (stereo not shown)
2. COCCNC(=O)CC1CN=C(c2cc3cc(Oc4ccc(S(C)(=O)=O)nc4)ccc3[nH]2)S1 (stereo not shown) [Example 57]
3. CNC(=O)CC1CN=C(c2cc3cc(Oc4ccc(S(C)(=O)=O)cn4)cc(OC4CCOCC4)c3[nH]2)S1 (stereo not shown)

1: 7.72; 2: 6.80; 3: 7.05

Required: pEC50, one value per compound below.
1. CNC(=O)CC1CN=C(c2cc3cc(Oc4ccc(S(C)(=O)=O)nc4)ccc3[nH]2)S1 (single isomer, unassigned) [Example 78]
2. CS(=O)(=O)c1ccc(Oc2ccc3[nH]c(C4=NCC(CC(=O)N5CCOCC5)S4)cc3c2)cn1 (stereo not shown) [Example 58]

1: 7.10; 2: 6.92
